Biological target: Androgen Receptor (Homo sapiens)
Construct: endogenous in cells; host or cells: VCaP cells
Sequence (P10275 1-920): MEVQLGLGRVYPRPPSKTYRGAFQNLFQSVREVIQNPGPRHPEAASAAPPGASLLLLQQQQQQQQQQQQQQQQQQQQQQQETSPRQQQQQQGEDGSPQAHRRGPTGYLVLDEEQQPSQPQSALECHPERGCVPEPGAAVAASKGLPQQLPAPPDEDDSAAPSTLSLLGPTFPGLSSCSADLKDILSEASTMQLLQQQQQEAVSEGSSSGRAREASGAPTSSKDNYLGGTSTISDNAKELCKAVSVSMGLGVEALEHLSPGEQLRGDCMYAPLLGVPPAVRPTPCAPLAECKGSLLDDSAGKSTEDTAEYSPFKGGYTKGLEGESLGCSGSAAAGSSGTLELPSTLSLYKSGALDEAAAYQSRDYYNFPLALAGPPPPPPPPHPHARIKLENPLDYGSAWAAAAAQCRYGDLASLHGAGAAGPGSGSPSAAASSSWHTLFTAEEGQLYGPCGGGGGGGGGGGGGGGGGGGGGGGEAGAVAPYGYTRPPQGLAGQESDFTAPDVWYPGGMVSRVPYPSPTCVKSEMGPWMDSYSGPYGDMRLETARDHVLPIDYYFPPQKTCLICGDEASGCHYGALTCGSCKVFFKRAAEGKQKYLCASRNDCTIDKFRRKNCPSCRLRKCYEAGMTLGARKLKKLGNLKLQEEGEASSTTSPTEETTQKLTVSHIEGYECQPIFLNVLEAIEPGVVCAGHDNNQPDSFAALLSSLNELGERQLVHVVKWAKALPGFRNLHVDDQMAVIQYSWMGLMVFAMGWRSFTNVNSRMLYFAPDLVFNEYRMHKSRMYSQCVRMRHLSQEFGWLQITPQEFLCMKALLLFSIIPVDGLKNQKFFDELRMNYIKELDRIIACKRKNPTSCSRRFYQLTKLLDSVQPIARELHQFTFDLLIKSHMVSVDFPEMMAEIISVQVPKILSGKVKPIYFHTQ
Assay: Androgen Receptor ELISA assay (PathScan AR ELISA) in VCaP cells: AR degradation, Dmax and DC50
Type: cell-based
Settings: VCaP, VCaP cells; Table 35; read-out: VCaP Dmax (%)
The entries below come with measured Dmax values attached.

Consider the worked cases shown below.
molecule	Dmax
Cc1ncsc1-c1ccc([C@H](C)NC(=O)[C@@H]2C[C@@H](O)CN2C(=O)[C@@H](NC(=O)COCCNc2ccc(-c3ccc(C(=O)N[C@H]4C(C)(C)[C@H](Oc5ccc(C#N)c(Cl)c5)C4(C)C)cc3)cn2)C(C)(C)C)cc1	> 71%
COc1cc(C#N)ccc1CNC(=O)[C@@H]1C[C@@H](O)CN1C(=O)[C@@H](NC(=O)COCCCCCNc1ccc(C(=O)N[C@H]2C(C)(C)[C@H](Oc3ccc(C#N)c(Cl)c3)C2(C)C)cc1)C(C)(C)C	51 to 70%
CC(C)(C)[C@H](NC(=O)COCCCCCNc1ccc(C(=O)N[C@H]2C(C)(C)[C@H](Oc3ccc(C#N)c(Cl)c3)C2(C)C)cc1)C(=O)N1C[C@H](O)C[C@H]1C(=O)NCc1ccc(Cl)cc1	51 to 70%
Cc1nccn1-c1ccc([C@H](C)NC(=O)[C@@H]2C[C@@H](O)CN2C(=O)[C@@H](NC(=O)COCCNc2ccc(-c3ccc(C(=O)N[C@H]4C(C)(C)[C@H](Oc5ccc(C#N)c(Cl)c5)C4(C)C)cc3)cn2)C(C)(C)C)cc1	> 71%
CNC(=O)c1ccc(CNC(=O)[C@@H]2C[C@@H](O)CN2C(=O)[C@@H](NC(=O)COCCCCCNc2ccc(C(=O)N[C@H]3C(C)(C)[C@H](Oc4ccc(C#N)c(Cl)c4)C3(C)C)cc2)C(C)(C)C)cc1	51 to 70%
CC(C)(C)[C@H](NC(=O)COCCCCCNc1ccc(C(=O)N[C@H]2C(C)(C)[C@H](Oc3ccc(C#N)c(Cl)c3)C2(C)C)cc1)C(=O)N1C[C@H](O)C[C@H]1C(=O)NCc1ccc(-c2scnc2N)cc1	> 71%
Cc1ncsc1-c1ccc([C@H](C)NC(=O)[C@@H]2CC(OC(=O)[C@@H]3CCCN3)CN2C(=O)[C@@H](NC(=O)COCCCCCNc2ccc(C(=O)N[C@H]3C(C)(C)[C@H](Oc4ccc(C#N)c(Cl)c4)C3(C)C)cc2)C(C)(C)C)cc1 (stereo partly shown)	> 71%
Cc1ncsc1-c1ccc([C@H](C)NC(=O)[C@@H]2C[C@@H](OC(=O)C(C)C)CN2C(=O)[C@@H](NC(=O)COCCCCCNc2ccc(C(=O)N[C@H]3C(C)(C)[C@H](Oc4ccc(C#N)c(Cl)c4)C3(C)C)cc2)C(C)(C)C)cc1	> 71%
Cc1ncsc1-c1ccc(CNC(=O)[C@@H]2C[C@@H](O)CN2C(=O)[C@@H](NC(=O)CNCCNc2ccc(-c3ccc(C(=O)N[C@H]4C(C)(C)[C@H](Oc5ccc(C#N)c(Cl)c5)C4(C)C)cc3)cn2)C(C)(C)C)cc1	51 to 70%
Cc1ncsc1-c1ccc(CNC(=O)[C@@H]2C[C@@H](O)CN2C(=O)[C@@H](NC(=O)COCCNc2ccc(-c3ccc(C(=O)N[C@H]4C(C)(C)[C@H](Oc5ccc(C#N)c(Cl)c5)C4(C)C)cc3)cn2)C(C)(C)C)cc1	> 71%

Per the records, this molecule ( Cc1ncsc1-c1ccc(CNC(=O)[C@@H]2C[C@@H](O)CN2C(=O)[C@@H](NC(=O)COCCCCCS(=O)(=O)c2ccc(C(=O)N[C@H]3C(C)(C)[C@H](Oc4ccc(C#N)c(Cl)c4)C3(C)C)cc2)C(C)(C)C)cc1 ) has Dmax equal to > 71%

Per the records, this molecule ( Cc1ncsc1-c1ccc(CNC(=O)[C@@H]2C[C@@H](O)CN2C(=O)[C@@H](NC(=O)COC[C@@H](O)[C@H](O)COc2ccc(C(=O)N[C@H]3C(C)(C)[C@H](Oc4ccc(C#N)c(Cl)c4)C3(C)C)cc2)C(C)(C)C)cc1 ) has Dmax equal to 51 to 70%

Per the records, this molecule ( Cc1ncsc1-c1ccc([C@H](C)NC(=O)[C@@H]2C[C@@H](O)CN2C(=O)[C@@H](NC(=O)COCCCCCNc2ccc(C(=O)N[C@H]3C(C)(C)[C@H](Oc4ccc(C#N)c(Cl)c4)C3(C)C)c(F)c2)C(C)(C)C)cc1 ) has Dmax equal to 26 to 50%

Per the records, this molecule ( Cc1ncsc1-c1ccc([C@H](C)NC(=O)[C@@H]2C[C@@H](O)CN2C(=O)[C@@H](NC(=O)COCCCCCNc2ccc(C(=O)N[C@H]3C(C)(C)[C@H](Oc4cnc(C#N)c(C(F)(F)F)c4)C3(C)C)cc2)C(C)(C)C)cc1 ) has Dmax equal to 51 to 70%

Per the records, this molecule ( Cc1ncsc1-c1ccc([C@H](CN2CCCC2)NC(=O)[C@@H]2C[C@@H](O)CN2C(=O)[C@@H](NC(=O)COCCCCCOc2ccc(C(=O)N[C@H]3C(C)(C)[C@H](Oc4ccc(C#N)c(Cl)c4)C3(C)C)cc2)C(C)(C)C)cc1 ) has Dmax equal to > 71%

Per the records, this molecule ( C[C@H](NC(=O)[C@@H]1C[C@@H](O)CN1C(=O)[C@@H](NC(=O)COCCCCOc1ccc(C(=O)N[C@H]2C(C)(C)[C@H](Oc3ccc(C#N)c(Cl)c3)C2(C)C)cc1)C(C)(C)C)c1ccc(-c2nncs2)cc1 ) has Dmax equal to > 71%

* * *

target: Androgen Receptor (Homo sapiens); construct: endogenous in cells; host or cells: VCaP cells; experiment: Androgen Receptor ELISA assay (PathScan AR ELISA) in VCaP cells: AR degradation, Dmax and DC50; assay type: cell-based; conditions: VCaP, read-out: VCaP Dmax (%), VCaP cells; Table 36
observable: Dmax

structure.notation	measured.value
Cc1ncsc1-c1ccc([C@H](C)NC(=O)[C@@H]2C[C@@H](O)CN2C(=O)[C@@H](NC(=O)[C@H](C)OCCN2CCN(c3ccc(C(=O)N[C@H]4C(C)(C)[C@H](Oc5ccc(C#N)c(Cl)c5)C4(C)C)cc3)CC2)C(C)(C)C)cc1	51 to 70%
Cc1ncsc1-c1ccc([C@H](C)NC(=O)[C@@H]2C[C@@H](F)CN2C(=O)[C@@H](NC(=O)COCCN2CCN(c3ccc(C(=O)N[C@H]4C(C)(C)[C@H](Oc5ccc(C#N)c(Cl)c5)C4(C)C)cn3)CC2)C(C)(C)C)cc1	< 25%
Cc1ncsc1-c1ccc([C@H](C)NC(=O)[C@@H]2C[C@@H](O)CN2C(=O)[C@@H](NC(=O)COCCc2cn(-c3ccc(C(=O)N[C@H]4C(C)(C)[C@H](Oc5ccc(C#N)c(C(F)(F)F)c5)C4(C)C)cc3)nn2)C(C)(C)C)cc1	> 71%

From here, focus on the item given below.
The recorded Dmax with Androgen Receptor (Homo sapiens) for CC(C)C[C@H](OCCN1CCN(c2ccc(C(=O)N[C@H]3C(C)(C)[C@H](Oc4ccc(C#N)c(Cl)c4)C3(C)C)cn2)CC1)C(=O)N[C@@H](C)C(=O)N1C[C@H](O)C[C@H]1C(=O)NCc1ccc(Cl)cc1 was < 25%
